This collection of values is drawn from the kinase profiling compilation of Christmann-Franck et al. (2016).

biological target: PAK4 (human) (UniProt O96013); experiment: radiometric filter-binding kinase assay, Kinase HotSpot; conditions: compound 0.5 µM; ATP 10 µM
Sequence (O96013 whole entry, looked up): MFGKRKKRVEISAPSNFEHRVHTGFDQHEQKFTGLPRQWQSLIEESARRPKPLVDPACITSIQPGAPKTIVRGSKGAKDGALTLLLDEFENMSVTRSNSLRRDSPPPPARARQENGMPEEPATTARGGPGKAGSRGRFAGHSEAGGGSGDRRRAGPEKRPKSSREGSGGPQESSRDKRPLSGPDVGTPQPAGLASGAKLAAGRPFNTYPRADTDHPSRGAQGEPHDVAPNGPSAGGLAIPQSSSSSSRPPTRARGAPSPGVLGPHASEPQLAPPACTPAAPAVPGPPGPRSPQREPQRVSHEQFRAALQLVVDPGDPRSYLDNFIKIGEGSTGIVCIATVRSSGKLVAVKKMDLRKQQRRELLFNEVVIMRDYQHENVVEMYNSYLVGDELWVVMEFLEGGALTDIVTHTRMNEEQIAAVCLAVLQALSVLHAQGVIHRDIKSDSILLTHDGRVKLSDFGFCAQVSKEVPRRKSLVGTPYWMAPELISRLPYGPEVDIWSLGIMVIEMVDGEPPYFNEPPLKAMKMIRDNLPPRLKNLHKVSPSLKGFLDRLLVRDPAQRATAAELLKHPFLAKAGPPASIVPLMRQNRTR
result-type: residual activity (%)
Please give a number only; it is taken to be in %.

Solved cases (2 shown):
Cc1[nH]c(/C=C2\C(=O)Nc3ccc(S(=O)(=O)N(C)c4cccc(Cl)c4)cc32)c(C)c1C(=O)N1CCN(C)CC1; 101
Cc1ccc(S(=O)(=O)/C=C/C#N)cc1; 91.9

// next entry
Answer with the recorded residual activity for the molecule listed here: O=C(Nc1cccc(Nc2nccc(Nc3cccc(C(F)(F)F)c3)n2)c1)C1CC1
87.4

---

target: CAMK1G (human); experiment: radiometric filter-binding kinase assay, Kinase HotSpot; settings: compound 0.5 µM; ATP 10 µM
The following molecules are shown together with reported residual activity values.
Please give a number only; it is taken to be in %.

CNc1cc2c(Nc3cccc(Br)c3)ncnc2cn1; 97.9

Answer with the recorded residual activity for the molecule listed here: CC#CC(=O)Nc1cc2c(Nc3ccc(F)c(Cl)c3)ncnc2cn1
99.2

Answer with the recorded residual activity for the molecule listed here: Nc1ccc2ncnc(NCCc3ccc(Oc4ccccc4)cc3)c2c1
102

Answer with the recorded residual activity for the molecule listed here: CC[n+]1c(/C=C/N(C)c2ccccc2)n(-c2ccccc2)c2ccc(-c3nc4ccccc4s3)cc21
101

---

molecular target: PRKACA (human); assay: radiometric filter-binding kinase assay, Kinase HotSpot; conditions: compound 0.5 µM; ATP 10 µM
result-type: residual activity (%)
Please give a number only; it is taken to be in %.

Solved cases (3 shown):
COc1cc2ncnc(Nc3cccc(Cl)c3)c2cc1OC; 98.6
Cc1[nH]c(/C=C2\C(=O)Nc3ccc(S(=O)(=O)N(C)c4cccc(Cl)c4)cc32)c(C)c1C(=O)N1CCN(C)CC1; 100
Nc1ncnc2c1c(-c1ccc(Oc3ccccc3)cc1)cn2C1CCCC1; 100

Answer with the recorded residual activity for the compound listed here: COc1ccc2c(c[n+](C)c3c4cc5c(cc4ccc23)OCO5)c1OC
100

Answer with the recorded residual activity for the compound listed here: CCN(CC)C(=O)c1ccc(Nc2nc(OCC3CCCCC3)c3nc[nH]c3n2)cc1
93.7

Answer with the recorded residual activity for the compound listed here: c1ccc(-c2n[nH]cc2-c2ccnc3ccccc23)nc1
107

---

target: DCLK2 (human) (UniProt Q8N568); assay: radiometric filter-binding kinase assay, Kinase HotSpot; conditions: compound 0.5 µM; ATP 10 µM
Sequence (Q8N568 whole entry, looked up): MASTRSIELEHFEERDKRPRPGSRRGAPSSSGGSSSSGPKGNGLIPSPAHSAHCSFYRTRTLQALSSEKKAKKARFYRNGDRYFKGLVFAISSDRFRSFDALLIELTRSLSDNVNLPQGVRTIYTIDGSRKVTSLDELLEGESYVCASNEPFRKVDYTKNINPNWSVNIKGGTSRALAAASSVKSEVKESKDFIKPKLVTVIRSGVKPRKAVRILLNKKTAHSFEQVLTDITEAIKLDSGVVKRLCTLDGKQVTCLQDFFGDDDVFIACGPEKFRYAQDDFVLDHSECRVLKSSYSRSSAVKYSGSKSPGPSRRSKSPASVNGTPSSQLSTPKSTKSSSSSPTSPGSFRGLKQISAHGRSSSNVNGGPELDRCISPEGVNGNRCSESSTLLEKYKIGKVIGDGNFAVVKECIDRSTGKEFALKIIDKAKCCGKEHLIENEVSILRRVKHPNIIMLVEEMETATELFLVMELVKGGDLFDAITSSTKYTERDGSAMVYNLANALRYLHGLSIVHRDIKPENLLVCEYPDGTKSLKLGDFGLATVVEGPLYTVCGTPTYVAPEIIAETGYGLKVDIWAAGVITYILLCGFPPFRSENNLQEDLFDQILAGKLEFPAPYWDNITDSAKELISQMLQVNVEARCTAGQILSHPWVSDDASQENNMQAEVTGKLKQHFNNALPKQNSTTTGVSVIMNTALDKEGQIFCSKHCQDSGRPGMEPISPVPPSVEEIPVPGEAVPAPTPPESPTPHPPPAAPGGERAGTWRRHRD
The following compounds are shown together with reported residual activity values.
Please give a number only; it is taken to be in %.

Nc1cccc(-c2cc3c(Oc4cccc(O)c4)ncnc3[nH]2)c1; 89

Answer with the recorded residual activity for the compound listed here: CCN(CC)CCNC(=O)c1c(C)[nH]c(/C=C2\C(=O)Nc3ccc(Cl)cc32)c1C
82.8

Answer with the recorded residual activity for the compound listed here: CC[n+]1c(/C=C/N(C)c2ccccc2)n(-c2ccccc2)c2ccc(-c3nc4ccccc4s3)cc21
102

Answer with the recorded residual activity for the compound listed here: O=C1NC(=O)/C(=C/c2ccc3c(c2)OC(F)(F)O3)S1
99.7

Answer with the recorded residual activity for the compound listed here: c1ccc(-c2n[nH]c3c2oc2ccccc23)cc1
90.2

Answer with the recorded residual activity for the compound listed here: Cc1[nH]c(/C=C2\C(=O)Nc3ccc(S(=O)(=O)N(C)c4cccc(Cl)c4)cc32)c(C)c1C(=O)N1CCN(C)CC1
90.4

Answer with the recorded residual activity for the compound listed here: CNC(=O)c1cc(Oc2ccc(NC(=O)Nc3ccc(Cl)c(C(F)(F)F)c3)cc2)ccn1
102

Answer with the recorded residual activity for the compound listed here: CC(C)N(CCC(=O)c1ccc2ccccc2c1)Cc1ccccc1
98.3

Answer with the recorded residual activity for the compound listed here: CCN(CC)C(=O)c1ccc(Nc2nc(OCC3CCCCC3)c3nc[nH]c3n2)cc1
97.3

Answer with the recorded residual activity for the compound listed here: CCC(=O)Nc1ccc2ncnc(Nc3cccc(Br)c3)c2c1
89

---

molecular target: IKBKE (human); assay: radiometric filter-binding kinase assay, Kinase HotSpot; conditions: compound 0.5 µM; ATP 10 µM
Outcome: true for residual activity of at least 90%; false for anything lower.

c1ccc(-c2n[nH]cc2-c2ccnc3ccccc23)nc1; true

Decide: residual activity of COc1ccc(COc2ccc(Cc3cnc(N)nc3N)cc2OC)cc1 >= 90%?
true

Decide: residual activity of COc1cc2ncnc(Nc3cccc(Cl)c3)c2cc1OC >= 90%?
true

Decide: residual activity of Nc1ccc2ncnc(NCCc3ccc(Oc4ccccc4)cc3)c2c1 >= 90%?
true

Decide: residual activity of CC#CC(=O)Nc1cc2c(Nc3ccc(F)c(Cl)c3)ncnc2cn1 >= 90%?
true

Decide: residual activity of CO[C@H]1CC2CC[C@@H](C)[C@@](O)(O2)C(=O)C(=O)N2CCCC[C@H]2C(=O)OC([C@H](C)C[C@@H]2CC[C@@H](O)[C@H](OC)C2)CC(=O)[C@H](C)/C=C(\C)[C@@H](O)[C@@H](OC)C(=O)[C@H](C)C[C@H](C)/C=C/C=C/C=C/1C (stereo not given in full) >= 90%?
true

Decide: residual activity of CC[n+]1c(/C=C/N(C)c2ccccc2)n(-c2ccccc2)c2ccc(-c3nc4ccccc4s3)cc21 >= 90%?
true

Decide: residual activity of Cc1ccc(S(=O)(=O)/C=C/C#N)cc1 >= 90%?
true

Decide: residual activity of N#C/C(=C(/N)Sc1ccc(N)cc1)c1ccccc1C(F)(F)F >= 90%?
true

Decide: residual activity of CNc1cc2c(Nc3cccc(Br)c3)ncnc2cn1 >= 90%?
false

---

The following compounds are shown together with reported residual activity values.
target: CDK4 CCND3 (human) (UniProt P30281+P11802); assay: radiometric filter-binding kinase assay, Kinase HotSpot; settings: compound 0.5 µM; ATP 10 µM
Sequence (P11802 whole entry, looked up): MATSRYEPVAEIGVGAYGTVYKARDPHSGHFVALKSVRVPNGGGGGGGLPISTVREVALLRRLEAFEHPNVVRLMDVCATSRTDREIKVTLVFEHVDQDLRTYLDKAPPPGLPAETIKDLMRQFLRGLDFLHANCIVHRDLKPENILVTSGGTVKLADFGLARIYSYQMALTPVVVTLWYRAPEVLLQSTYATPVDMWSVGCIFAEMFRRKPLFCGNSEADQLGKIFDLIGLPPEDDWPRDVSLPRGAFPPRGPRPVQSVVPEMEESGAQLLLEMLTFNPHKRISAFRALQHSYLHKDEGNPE
Sequence (P30281 whole entry, looked up): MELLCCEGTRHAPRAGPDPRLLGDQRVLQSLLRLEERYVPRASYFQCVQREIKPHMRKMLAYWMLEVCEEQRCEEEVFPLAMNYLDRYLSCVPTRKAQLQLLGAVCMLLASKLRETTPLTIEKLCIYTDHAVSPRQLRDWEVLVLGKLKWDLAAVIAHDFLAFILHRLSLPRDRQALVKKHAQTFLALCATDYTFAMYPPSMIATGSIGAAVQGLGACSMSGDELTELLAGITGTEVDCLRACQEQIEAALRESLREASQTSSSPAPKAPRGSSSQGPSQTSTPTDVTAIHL
Please give a number only; it is taken to be in %.

Solved cases (2 shown):
N#CC(C#N)=C(N)/C(C#N)=C/c1ccc(O)cc1; 97.1
O=C1NC(=O)c2c1c1c3ccccc3n3c1c1c2c2ccccc2n1C1CCC3O1; 22.2

Answer with the recorded residual activity for the compound listed here: c1ccc(-c2n[nH]cc2-c2ccnc3ccccc23)nc1
102

Answer with the recorded residual activity for the compound listed here: O=C1NC(=O)C(c2cn(CCCn3ccnc3)c3ccccc23)=C1Nc1ccccc1
91

---

biological target: UniProt:O15146; assay: radiometric filter-binding kinase assay, Kinase HotSpot; conditions: compound 0.5 µM; ATP 10 µM
Sequence (O15146 whole entry, looked up): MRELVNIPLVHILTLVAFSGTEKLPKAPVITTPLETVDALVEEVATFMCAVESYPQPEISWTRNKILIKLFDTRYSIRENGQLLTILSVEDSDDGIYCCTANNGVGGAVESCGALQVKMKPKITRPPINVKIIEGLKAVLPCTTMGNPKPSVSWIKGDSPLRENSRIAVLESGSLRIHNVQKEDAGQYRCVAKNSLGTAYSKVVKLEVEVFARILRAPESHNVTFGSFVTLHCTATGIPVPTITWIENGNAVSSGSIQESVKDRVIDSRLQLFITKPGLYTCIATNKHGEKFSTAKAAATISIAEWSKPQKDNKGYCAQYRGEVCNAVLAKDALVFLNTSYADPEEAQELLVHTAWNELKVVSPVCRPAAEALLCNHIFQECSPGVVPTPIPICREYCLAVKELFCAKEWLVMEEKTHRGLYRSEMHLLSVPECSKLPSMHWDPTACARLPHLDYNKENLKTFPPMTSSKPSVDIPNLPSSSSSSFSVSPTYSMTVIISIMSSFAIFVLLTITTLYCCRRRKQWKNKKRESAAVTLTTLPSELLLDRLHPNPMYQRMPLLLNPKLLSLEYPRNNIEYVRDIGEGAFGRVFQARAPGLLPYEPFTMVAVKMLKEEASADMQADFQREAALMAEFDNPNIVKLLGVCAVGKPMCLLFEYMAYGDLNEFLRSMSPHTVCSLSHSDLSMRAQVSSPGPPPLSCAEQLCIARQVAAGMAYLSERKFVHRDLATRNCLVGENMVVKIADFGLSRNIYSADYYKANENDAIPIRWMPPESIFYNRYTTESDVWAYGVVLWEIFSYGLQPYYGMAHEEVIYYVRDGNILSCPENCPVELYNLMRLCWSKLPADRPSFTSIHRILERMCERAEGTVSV
The following compounds are shown together with reported residual activity values.
Please give a number only; it is taken to be in %.

Solved cases (5 shown):
O=C1NC(=O)/C(=C/c2ccc3c(c2)OC(F)(F)O3)S1; 70.9
O=C1Nc2ccc(Cl)cc2/C1=C/c1cc(Cl)c(O)c(Cl)c1; 65.5
Nc1ncnc2c1c(-c1ccc(Oc3ccccc3)cc1)cn2C1CCCC1; 115
CC(C)N(CCC(=O)c1ccc2ccccc2c1)Cc1ccccc1; 112
COc1cc2ncnc(Nc3cccc(Cl)c3)c2cc1OC; 88.3

Would you please give the reported residual activity of Oc1cccc(-c2nc(N3CCOCC3)c3oc4ncccc4c3n2)c1 with UniProt:O15146?
87.8

Would you please give the reported residual activity of N#C/C(=C(/N)Sc1ccc(N)cc1)c1ccccc1C(F)(F)F with UniProt:O15146?
91.9

Would you please give the reported residual activity of c1ccc(-c2n[nH]cc2-c2ccnc3ccccc23)nc1 with UniProt:O15146?
93.4

---

molecular target: STK33 (human); assay: radiometric filter-binding kinase assay, Kinase HotSpot; conditions: compound 0.5 µM; ATP 10 µM
result-type: residual activity (%)
Please give a number only; it is taken to be in %.

COc1ccc(COc2ccc(Cc3cnc(N)nc3N)cc2OC)cc1; 96.4
Cc1ccc(S(=O)(=O)/C=C/C#N)cc1; 87.1
CCN(CC)CCNC(=O)c1c(C)[nH]c(/C=C2\C(=O)Nc3ccc(Cl)cc32)c1C; 20.6
CCOC(=O)c1c(C)[nH]c(/C=C2\C(=O)Nc3ccccc32)c1C; 83.7
Cc1ccc(NC2=CC(=O)c3sc(C)nc3C2=O)cc1; 96.6
CC#CC(=O)Nc1cc2c(Nc3ccc(F)c(Cl)c3)ncnc2cn1; 88.5

Answer with the recorded residual activity for the compound listed here: CCN(CC)C(=O)c1ccc(Nc2nc(OCC3CCCCC3)c3nc[nH]c3n2)cc1
67.2

Answer with the recorded residual activity for the compound listed here: CC(C)N(CCC(=O)c1ccc2ccccc2c1)Cc1ccccc1
104

Answer with the recorded residual activity for the compound listed here: COc1cc2ncnc(Nc3cccc(Cl)c3)c2cc1OC
88.3

Answer with the recorded residual activity for the compound listed here: Nc1ncnc2[nH]nc(Nc3ccc(F)cc3)c12
94.3

Answer with the recorded residual activity for the compound listed here: c1ccc(-c2n[nH]c3c2oc2ccccc23)cc1
96.5

Answer with the recorded residual activity for the compound listed here: Nc1ccc2ncnc(NCCc3ccc(Oc4ccccc4)cc3)c2c1
101

Answer with the recorded residual activity for the compound listed here: CC[n+]1c(/C=C/N(C)c2ccccc2)n(-c2ccccc2)c2ccc(-c3nc4ccccc4s3)cc21
89.4

Answer with the recorded residual activity for the compound listed here: O=C(Nc1cccc(Nc2nccc(Nc3cccc(C(F)(F)F)c3)n2)c1)C1CC1
81.5
